# assay-comment: Extrapolated human dosimetry (OLINDA/EXM, ICRP-89 phantoms)
# test-parameters: ICRP 89 Adult Female, extrapolated
Parameter: Absorbed dose (AD average) Stomach Wall. Scope: all listed entries.
Your answer is read as mGy/Mbq, so omit the unit and give the number.

Below are worked cases with known answers.
>  <compound>
N#C[C@@H]1CC(F)(F)CN1C(=O)CNC(=O)c1ccnc2ccc(OCCCCNC(=O)CC[C@H](NC(=O)CN3CCN(CC(=O)[O-])CCN(CC(=O)[O-])CCN(CC(=O)[O-])CC3)C(=O)NCCCCOc3ccc4nccc(C(=O)NCC(=O)N5CC(F)(F)C[C@H]5C#N)c4c3)cc12.[177Lu+3] [[^177Lu]Lu-DO3A.Glu.(FAPI)2]

>  <unit>
mGy/Mbq

>  <observed-result>
3.65E-02

$$$$
>  <compound>
N#C[C@@H]1CC(F)(F)CN1C(=O)CNC(=O)c1ccnc2ccc(OCCCCNC(=O)CC[C@H](NC(=O)CN3CCN(CC(=O)[O-])CCN(CC(=O)[O-])CCN(CC(=O)[O-])CC3)C(=O)NCCCCOc3ccc4nccc(C(=O)NCC(=O)N5CC(F)(F)C[C@H]5C#N)c4c3)cc12.[161Tb+3] [[^161Tb]Tb-DO3A.Glu.(FAPI)2]

>  <unit>
mGy/Mbq

>  <observed-result>
3.75E-02

$$$$

Let us examine a further case.
Noted for N#C[C@@H]1CC(F)(F)CN1C(=O)CNC(=O)c1ccnc2ccc(OCCCCNC(=O)CC[C@H](NC(=O)CCC(C(=O)O)N3CCN(CC(=O)[O-])CCN(CC(=O)[O-])CCN(CC(=O)[O-])CC3)C(=O)NCCCCOc3ccc4nccc(C(=O)NCC(=O)N5CC(F)(F)C[C@H]5C#N)c4c3)cc12.[177Lu+3] (stereo partly drawn) [[^177Lu]Lu-DOTAGA.Glu.(FAPI)2] : its Absorbed dose (AD average) Stomach Wall reads 4.24E-02
